# target.or.system: Recombinant human HSD17B13 (Homo sapiens (Human), UniProt Q7Z5P4)
# Sequence (Q7Z5P4 20-300): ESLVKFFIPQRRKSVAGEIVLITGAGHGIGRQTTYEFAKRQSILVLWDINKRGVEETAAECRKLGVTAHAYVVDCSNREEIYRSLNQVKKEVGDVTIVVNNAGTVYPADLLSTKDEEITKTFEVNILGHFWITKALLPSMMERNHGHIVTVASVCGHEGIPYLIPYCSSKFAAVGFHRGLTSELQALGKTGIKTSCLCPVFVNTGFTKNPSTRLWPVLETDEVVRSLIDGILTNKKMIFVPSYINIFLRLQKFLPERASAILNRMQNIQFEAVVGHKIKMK
# test: HSD17B13 rapid-fire mass spectrometry assay (RF/MS assay)
# details: inhibition of HSD17B13; LTB4 10 μM, NAD+ 0.5 mM, RT 3 h; IC50 ranges A-E
Below is a list of entries, each paired with its recorded IC50 value.

Known IC50 results, listed for orientation:
Req: Item COc1cc(C(=O)O)c(F)cc1NS(=O)(=O)c1ccc2sc(-c3ccc(C4CCCCC4)cc3C(F)(F)F)nc2c1 has what recorded IC50?
Resp: 500 to 1000 nM

Req: Item COc1cc(C(=O)O)ccc1NS(=O)(=O)c1csc(-c2ccc(C#N)cc2)n1 has what recorded IC50?
Resp: 1000 to 100000 nM

Req: Item CCOC(=O)c1cc2c(c(OC)c1)N(S(=O)(=O)c1csc(-c3ccc(F)cc3)n1)CCC2 has what recorded IC50?
Resp: 1000 to 100000 nM

Req: Item COc1cc(C(=O)O)c(F)cc1NS(=O)(=O)c1csc(-c2ccc(-c3ccc(C(F)(F)C(F)(F)F)cc3)cc2C(F)(F)F)n1 has what recorded IC50?
Resp: < 100 nM

Next:
Req: Item COc1cc(C(=O)O)ccc1NS(=O)(=O)c1coc2ccccc12 has what recorded IC50?
Resp: 1000 to 100000 nM

Req: Item O=S(=O)(Nc1ccc(O)cc1O)c1cnc(-c2ccc(F)cc2)s1 has what recorded IC50?
Resp: 1000 to 100000 nM

Attribution: patent US12384753B2
